B1: CPEB3 Ribozyme (parent)
chain: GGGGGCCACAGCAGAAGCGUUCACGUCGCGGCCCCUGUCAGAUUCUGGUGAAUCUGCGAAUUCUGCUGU

Variants of: B1
assayProcedure: self-cleavage, relative activity (ratio to wild type); higher = more cleavage; co-transcriptional
Lab note: class by self-cleavage, see low-valued: < 0.2; mid-valued: ≥ 0.2 and < 0.8; high-valued: ≥ 0.8

mutantDesignation: A15C U43C
label: mid-valued
//
mutantDesignation: U21A C54A
label: high-valued
//
mutantDesignation: G5C U38G
label: low-valued
//
mutantDesignation: A15C U44A
label: mid-valued
//
mutantDesignation: C29U U67A
label: mid-valued
//
mutantDesignation: G2A A52U
label: low-valued
//
mutantDesignation: U44A
label: high-valued
//
mutantDesignation: C35G A51G
label: mid-valued
//
mutantDesignation: C24A C27A
label: low-valued
//
mutantDesignation: A59G U64A
label: high-valued
//
mutantDesignation: U20G A60G
label: low-valued

These measurements were taken from the RNAGym collection of RNA variant scans (doi:10.7554/elife.80360).
